These data points were gathered from ChEMBL document CHEMBL1144605.

Quick record: Ki, Androgen receptor (Homo sapiens).
property measured: Ki

• CCC1CCc2cc3c(C(F)(F)F)cc(=O)[nH]c3cc2N1 (stereo unspecified) = 11 nM
• O=c1cc(C(F)(F)F)c2ccc(NC3CCCCC3)cc2[nH]1 = 1000 nM
• O=c1cc(C(F)(F)F)c2cc(NC3CCCC3)ccc2[nH]1 = 74 nM
• O=c1cc(C(F)(F)F)c2ccc(NC3CCCC3)cc2[nH]1 = 1000 nM
• O=c1cc(C(F)(F)F)c2ccc(NCc3ccccc3)cc2[nH]1 = 163 nM
• CC1(C)C=Cc2cc3c(C(F)(F)F)cc(O)nc3cc2N1 = 73 nM

* * *

Biological target: Androgen receptor (Homo sapiens, UniProt P10275)
Sequence (P10275 whole entry): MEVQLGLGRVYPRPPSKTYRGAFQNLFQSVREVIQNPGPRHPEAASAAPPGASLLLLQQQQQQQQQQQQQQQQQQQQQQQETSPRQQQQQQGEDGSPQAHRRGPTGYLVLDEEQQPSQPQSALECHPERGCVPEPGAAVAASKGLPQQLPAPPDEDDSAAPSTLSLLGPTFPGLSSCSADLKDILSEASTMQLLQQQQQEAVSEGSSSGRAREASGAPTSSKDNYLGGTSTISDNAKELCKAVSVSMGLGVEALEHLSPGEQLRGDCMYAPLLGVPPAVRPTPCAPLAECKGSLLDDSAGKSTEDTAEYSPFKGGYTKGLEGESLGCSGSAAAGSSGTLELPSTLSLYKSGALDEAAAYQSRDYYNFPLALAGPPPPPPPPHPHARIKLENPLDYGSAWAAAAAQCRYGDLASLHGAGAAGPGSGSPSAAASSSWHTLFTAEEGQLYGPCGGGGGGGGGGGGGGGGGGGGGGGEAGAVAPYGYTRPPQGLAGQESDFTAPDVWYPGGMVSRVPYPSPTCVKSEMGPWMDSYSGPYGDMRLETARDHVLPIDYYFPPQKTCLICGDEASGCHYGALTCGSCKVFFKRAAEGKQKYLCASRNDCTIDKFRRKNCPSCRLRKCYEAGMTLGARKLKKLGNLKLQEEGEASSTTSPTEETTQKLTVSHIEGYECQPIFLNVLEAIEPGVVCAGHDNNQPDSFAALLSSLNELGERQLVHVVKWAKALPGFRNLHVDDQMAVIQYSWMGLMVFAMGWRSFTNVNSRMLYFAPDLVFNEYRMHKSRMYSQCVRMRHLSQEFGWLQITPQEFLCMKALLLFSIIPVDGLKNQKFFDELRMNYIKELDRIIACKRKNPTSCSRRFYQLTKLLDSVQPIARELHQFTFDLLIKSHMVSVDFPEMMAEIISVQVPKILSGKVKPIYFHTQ
pEC50: −log10 of the molar value.
property measured: pEC50

• O=c1cc(C(F)(F)F)c2ccc(N(CC(F)(F)F)CC(F)(F)F)cc2o1 = 7.14

* * *

Target: UniProt:P10275
Sequence (P10275 whole entry): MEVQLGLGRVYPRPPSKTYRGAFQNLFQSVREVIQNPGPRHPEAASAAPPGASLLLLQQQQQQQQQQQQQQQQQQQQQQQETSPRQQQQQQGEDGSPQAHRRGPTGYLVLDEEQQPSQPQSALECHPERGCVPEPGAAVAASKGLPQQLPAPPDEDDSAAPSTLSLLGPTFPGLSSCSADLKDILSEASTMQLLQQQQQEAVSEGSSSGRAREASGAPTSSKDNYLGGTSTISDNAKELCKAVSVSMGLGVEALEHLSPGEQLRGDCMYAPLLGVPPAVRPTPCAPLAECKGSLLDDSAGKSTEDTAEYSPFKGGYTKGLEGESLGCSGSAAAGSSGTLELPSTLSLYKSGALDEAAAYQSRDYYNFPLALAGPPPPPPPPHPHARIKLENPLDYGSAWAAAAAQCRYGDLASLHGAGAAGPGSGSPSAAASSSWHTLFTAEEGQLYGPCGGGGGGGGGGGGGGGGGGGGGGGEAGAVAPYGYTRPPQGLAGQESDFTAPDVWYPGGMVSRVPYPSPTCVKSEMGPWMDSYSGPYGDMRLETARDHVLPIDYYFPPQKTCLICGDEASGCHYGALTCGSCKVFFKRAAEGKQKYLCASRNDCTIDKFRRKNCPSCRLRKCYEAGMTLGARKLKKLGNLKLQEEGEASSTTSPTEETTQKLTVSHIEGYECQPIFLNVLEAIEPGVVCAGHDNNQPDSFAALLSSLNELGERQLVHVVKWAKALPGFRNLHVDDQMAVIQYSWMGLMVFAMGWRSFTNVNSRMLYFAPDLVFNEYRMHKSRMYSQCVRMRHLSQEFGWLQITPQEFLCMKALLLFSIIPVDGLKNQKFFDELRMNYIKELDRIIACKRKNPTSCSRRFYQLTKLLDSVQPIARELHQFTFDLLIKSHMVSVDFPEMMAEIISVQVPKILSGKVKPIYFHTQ
Attribute: log10 of IC50
property measured: log10 of IC50 (log10 of the value in nM)

* O=c1cc(C(F)(F)F)c2ccc(NC3CCCCC3)cc2[nH]1 | 2.71
* CC1(C)C=Cc2cc3c(C(F)(F)F)cc(O)nc3cc2N1 | 1.43
* O=c1cc(C(F)(F)F)c2ccc(NC3CCCC3)cc2[nH]1 | 2.17
* O=c1cc(C(F)(F)F)c2cc(NC3CCCC3)ccc2[nH]1 | 1.62
* O=c1cc(C(F)(F)F)c2ccc(NCc3ccccc3)cc2[nH]1 | 2.47
* O=c1cc(C(F)(F)F)c2ccc(NCC(F)(F)F)cc2o1 | 1.70
* CCNc1ccc2[nH]c(=O)cc(C(F)(F)F)c2c1 | 2.05
* CCC1CCc2cc3c(C(F)(F)F)cc(=O)[nH]c3cc2N1 (centres undefined) | 1.15
* O=c1cc(C(F)(F)F)c2ccc(N(CC(F)(F)F)CC(F)(F)F)cc2o1 | 1.80
